Entry source: PubChem BioAssay AID179

System: CEM cells HIV-1 protection, formazan growth assay
Assay: NCI AIDS Antiviral Assay;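 active = compounds giving half or more protection of infected cells from virus-caused growth loss, again on retest; inactive = the rest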
The reply should name one outcome from active, inactive

Recorded results for 3 compounds are shown here.
- Compound: "C=C1CC2(CCS(=O)(=O)c3ccccc32)OC1=O (configuration not stated)"
  Category label: "inactive"
- Compound: "O=c1ssc(Cl)c1Cl"
  Category label: "inactive"
- Compound: "CCCCCCCCCCCCOCCCCCCCCC/C=C/c1ccc2c(c1)OCCOCCOCCOCCO2"
  Category label: "inactive"

Status in this test for `C[N+](C)(C)CCCCCCCCCC[N+](C)(C)C` ?
inactive

And the next one, `N#CC(=C(c1ccccc1)c1ccccc1)c1ccccc1` ?
inactive

And the next one, `CC(=O)[O-].[Mn+3].[O-]c1ccccc1C=NCCNCCN=Cc1ccccc1[O-]` ?
inactive
